Value source: ChEMBL document CHEMBL3991601

Active and inactive are the calls of the source.
// values below are Kd; system is UniProt:P29597
Sequence (P29597 whole entry): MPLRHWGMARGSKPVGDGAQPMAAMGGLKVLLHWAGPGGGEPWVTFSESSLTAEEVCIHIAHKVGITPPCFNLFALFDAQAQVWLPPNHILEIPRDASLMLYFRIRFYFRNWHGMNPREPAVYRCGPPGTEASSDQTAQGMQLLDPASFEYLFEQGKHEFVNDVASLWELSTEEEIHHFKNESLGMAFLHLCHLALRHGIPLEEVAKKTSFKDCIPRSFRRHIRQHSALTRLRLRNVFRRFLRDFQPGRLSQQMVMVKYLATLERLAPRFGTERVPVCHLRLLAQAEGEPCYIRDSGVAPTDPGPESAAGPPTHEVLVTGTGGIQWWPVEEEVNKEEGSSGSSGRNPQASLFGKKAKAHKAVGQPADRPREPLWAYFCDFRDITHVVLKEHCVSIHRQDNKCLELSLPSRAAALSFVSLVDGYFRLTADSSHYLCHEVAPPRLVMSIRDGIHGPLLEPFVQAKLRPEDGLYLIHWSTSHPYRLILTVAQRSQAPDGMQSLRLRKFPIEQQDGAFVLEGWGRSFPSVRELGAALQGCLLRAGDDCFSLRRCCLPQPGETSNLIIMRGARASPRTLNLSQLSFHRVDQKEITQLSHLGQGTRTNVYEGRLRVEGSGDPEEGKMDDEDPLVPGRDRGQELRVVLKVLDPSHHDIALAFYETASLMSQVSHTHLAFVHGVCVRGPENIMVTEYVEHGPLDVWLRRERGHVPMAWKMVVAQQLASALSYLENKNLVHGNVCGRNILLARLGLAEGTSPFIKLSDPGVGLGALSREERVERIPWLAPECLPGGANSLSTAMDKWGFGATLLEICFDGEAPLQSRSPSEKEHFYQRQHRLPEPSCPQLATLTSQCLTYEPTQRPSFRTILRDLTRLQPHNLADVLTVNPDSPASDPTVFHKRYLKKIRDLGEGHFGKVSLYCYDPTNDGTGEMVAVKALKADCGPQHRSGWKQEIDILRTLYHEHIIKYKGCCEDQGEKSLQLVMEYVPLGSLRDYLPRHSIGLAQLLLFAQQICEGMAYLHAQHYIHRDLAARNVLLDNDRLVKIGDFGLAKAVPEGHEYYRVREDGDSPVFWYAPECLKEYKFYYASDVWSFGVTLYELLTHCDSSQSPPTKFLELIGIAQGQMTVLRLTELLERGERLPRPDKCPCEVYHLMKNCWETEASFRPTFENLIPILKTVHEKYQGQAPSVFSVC

Use the examples below as a reference point.
STRUCTURE_AS_SMILES	RESULT
CNC(=O)CN1CCC(Oc2cc3c(Nc4cccc(Cl)c4F)ncnc3cc2OC)CC1	> 30 µM (inactive)
CN1CCC(CNc2ccc3ncc(-c4cccc(OC(F)(F)F)c4)n3n2)CC1	> 30 µM (inactive)

From here, focus on the item given below.
## Task Find Kd (UniProt:P29597) for the entry COc1cc(CCc2cc(NC(=O)c3ccc(N4C[C@@H](C)N[C@@H](C)C4)cc3)n[nH]2)cc(OC)c1
## Result > 30 µM (inactive)
